All figures here come from the RNAGym collection of RNA variant scans (doi:10.7554/elife.80360).

Entries and their measured self-cleavage follow.
B1: CPEB3 Ribozyme (parent)
chain: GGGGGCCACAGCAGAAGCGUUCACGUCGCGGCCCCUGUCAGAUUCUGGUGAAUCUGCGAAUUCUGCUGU

Variants of: B1
Experiment: self-cleavage, relative activity (ratio to wild type); higher = more cleavage; co-transcriptional
Would you mind answering with just the numeric figure?

Completed entries (count: 6):
| mutation.code | self-cleavage |
| --- | --- |
| A13G C54A | 0.642 |
| G14C G56U | 0.236 |
| U20C A23U | 0.257 |
| C34G U62G | 0.477 |
| C6G A59G | 0.255 |
| C7A C22G | 0.0999 |

Read off the recorded self-cleavage for C29G G56C
0.225

Read off the recorded self-cleavage for C57G G58U
0.463

Read off the recorded self-cleavage for G48U G68A
1.04

Read off the recorded self-cleavage for C7U C9A
1.05

Read off the recorded self-cleavage for C22A C32A
0.224

Read off the recorded self-cleavage for G37U U38C
0.239

Read off the recorded self-cleavage for U20C C63U
0.229

Read off the recorded self-cleavage for C33G U53G
0.32

Read off the recorded self-cleavage for G50C A59G
1.03

Read off the recorded self-cleavage for G14C G65C
0.231

Read off the recorded self-cleavage for G5U A42G
0.343

Read off the recorded self-cleavage for G1C C63A
0.199

Read off the recorded self-cleavage for G41U A51U
0.609

Read off the recorded self-cleavage for A8C U53C
0.902

Read off the recorded self-cleavage for C57U U61G
0.463

Read off the recorded self-cleavage for A16C U49G
0.319

Read off the recorded self-cleavage for C24U A51C
0.782

Read off the recorded self-cleavage for U43A C63A
0.504
